tested.target: biotinylated HRP (Armoracia rusticana)
Construct: purchased Roche Diagnostics, Indianapolis, Ind., USA
Sequence (P00433 31-338 limits assumed): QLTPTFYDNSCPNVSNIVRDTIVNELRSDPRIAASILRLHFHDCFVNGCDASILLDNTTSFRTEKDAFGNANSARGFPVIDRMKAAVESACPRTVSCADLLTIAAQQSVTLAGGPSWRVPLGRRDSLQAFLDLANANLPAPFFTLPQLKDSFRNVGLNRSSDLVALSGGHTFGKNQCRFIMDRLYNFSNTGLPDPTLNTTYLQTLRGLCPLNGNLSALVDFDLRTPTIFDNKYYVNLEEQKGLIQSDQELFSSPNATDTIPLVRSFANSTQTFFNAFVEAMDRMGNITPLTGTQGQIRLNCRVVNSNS
protocol: Model system for selection of SSIA (M280 btn-BSA-AK1-streptavidin particles + Btn-HRP:HRP)
Format: biochemical
assay.conditions: Btn-HRP 10 ng/mL vs 0; SSIA 100 μM
assay.metric: S2/S0
Numbers only.

1) Cc1c(O)cc2c(c1C)O[C@](C)(CCC[C@H](C)CCC[C@H](C)CCCC(C)C)CC2 [(+)-gamma-Tocopherol, (+)-y-Tocopherol] = 278.7
2) Oc1ccc(O)c(Cl)c1 [2-chloro-1,4-dihydroxybenzene] = 52.9
3) COc1cc(/C=C/C(=O)O)ccc1O = 136.2
4) Cc1c(C)c2c(c(C)c1O)CC[C@@](C)(CCC[C@H](C)CCC[C@H](C)CCCC(C)C)O2 (racemic) [(+/−)-alpha-Tocopherol, (±)-a-Tocopherol] = 452.1
5) CC1(C)CC(O)CC(C)(C)N1[O] = 86.8

Items follow; give S2/S0 for each.
1. N[C@@H](CCC(=O)N[C@@H](CS)C(=O)NCC(=O)O)C(=O)O
2. N[C@@H](CS)C(=O)O
3. Cl.Nc1ccc(O)cc1O [4-aminoresorcinol HCl, 4-aminoresorcinol hydrochloride]

92
69.6
110.8

Please give the measured S2/S0 for this compound: `COc1cc(C(=O)O)cc(OC)c1O` 64.8

###

tested.target: biotinylated HRP (Armoracia rusticana)
Construct: purchased Roche Diagnostics, Indianapolis, Ind., USA
protocol: Model system for selection of SSIA (M280 btn-BSA-AK1-streptavidin particles + Btn-HRP:HRP)
Type: biochemical
assay.conditions: SSIA 100 μM; conclusion in words
assay.metric: effect in the model system / utility as SSIA

1) NNC(=O)c1cccnc1 [Nicotinic Hydrazide] = no effect
2) N[C@@H](CS)C(=O)O = no effect

###

Kindly supply the reported S2/S0 values for the records listed here.
tested.target: biotinylated HRP (Armoracia rusticana)
Construct: purchased Roche Diagnostics, Indianapolis, Ind., USA
protocol: Model system for selection of SSIA (M280 btn-BSA-AK1-streptavidin particles + Btn-HRP:HRP)
Format: biochemical
assay.conditions: Btn-HRP 10 ng/mL vs 0; SSIA 100 μM
One number for each entry.

Items follow; give S2/S0 for each.
1. Cc1c(C)c2c(c(C)c1O)CCC(C)(C(=O)O)O2 (centres unmarked) [Trolox ®, Trolox]
2. COc1ccc2[nH]cc(CCNC(C)=O)c2c1 [Melatonin]
3. Oc1ccc(Cl)cc1O [4-chlorocatechol]
4. CC1(C)OC[C@@H]([C@H]2OC(=O)C(O)=C2O)O1 [5,6iso-propyliene ascorbic acid, 5,6-Isopropylidene-L-Ascorbic acid]
5. Nc1ccc(C(=O)O)cc1O [4-Amino-3-hydroxybenzoic acid, 4-amino-3-hydroxybenzoic acid]
6. O=c1[nH]c(=O)c2[nH]c(=O)[nH]c2[nH]1 [Uric Acid]

1: 215.1; 2: 43.7; 3: 14.8; 4: 112.3; 5: 454.2; 6: 185.3

Items follow; give S2/S0 for each.
1. CCCCCCCCCCCCCCCC(=O)OC[C@H](O)[C@H]1OC(=O)C(O)=C1O [Ascorbic Acid 6-palmitate, L-Ascorbic acid 6-Palmitate]
2. NNC(=O)c1cccnc1 [Nicotinic Hydrazide]

1. 502.4
2. 49.8
